Test: logP by HPLC on reversed-phase column (C 18), EEC Directive 79/B31 Annex V.A8, methods A and B
Type: physicochemical
Conditions: reversed-phase HPLC column (C 18), LogP method A: HPLC reversed-phase C 18, 43° C., 0.1% aqueous phosphoric acid / acetonitrile, linear gradient 10% to 90% acetonitrile
Procedure: Calibration was carried out using unbranched alkan-2-ones (having 3 to 16 carbon atoms) with known logP values (determination of the logP values by the retention times using linear interpolation between two successive alkanones).
Sorting guide: entries reporting chromatographic logP beneath 2 go in the criterion met pile, the rest go in the criterion not met pile.

Cc1nn(C)c(Oc2cccc(O)c2)c1C(=O)N(C1CC1)S(=O)(=O)c1ccc(O)c(O)c1    criterion not met
CCc1onc(C(C)C)c1C(=O)N(C1CC1)S(=O)(=O)c1cccc(O)c1    criterion not met
CCc1c(C(=O)N(C2CC2)S(=O)(=O)c2ccc(C(C)(C)C)cc2)sc(=O)n1C1CC1    criterion not met

Would you kindly look at the next entry?
[ask] Bench note: check whether Cc1c(C(=O)N(C2CC2)S(=O)(=O)c2cccc(Cl)c2)sc(=O)n1C shows chromatographic logP below 2
[reply] criterion met

====

experiment: logP by HPLC on reversed-phase column (C 18), EEC Directive 79/B31 Annex V.A8, methods A and B; format: physicochemical; conditions: reversed-phase HPLC column (C 18), LogP method B: HPLC reversed-phase C 18, 40° C., 0.1% aqueous formic acid / acetonitrile, linear gradient 10% to 90% acetonitrile
// NO strictly below 4 in chromatographic logP; YES otherwise

[ask] Quick check, chromatographic logP >= 4? CCOc1nn(C)cc1C(=O)N(C1CC1)S(=O)(=O)c1ccc(Oc2ccc(O)c(C(F)(F)F)c2)c(Cl)c1 [Compound 556]
[reply] YES

[ask] Quick check, chromatographic logP >= 4? Cc1nn(C)c(C(=O)N(C2CC2)S(=O)(=O)c2cccc(O)c2O)c1Cl [Compound 586]
[reply] NO

====

Test: logP by HPLC on reversed-phase column (C 18), EEC Directive 79/B31 Annex V.A8, methods A and B
Format: physicochemical
Conditions: reversed-phase HPLC column (C 18), LogP method A: HPLC reversed-phase C 18, 43° C., 0.1% aqueous phosphoric acid / acetonitrile, linear gradient 10% to 90% acetonitrile
Method: Calibration was carried out using unbranched alkan-2-ones (having 3 to 16 carbon atoms) with known logP values (determination of the logP values by the retention times using linear interpolation between two successive alkanones).
Sorting guide: entries reporting chromatographic logP beneath 4 go in the YES pile, the rest go in the NO pile.

The following molecules have reported results that may help.
O=C(c1cccnc1)N(C1CC1)S(=O)(=O)c1ccc(O)c(O)c1 [Compound 639]    YES
Cc1n[nH]c(C)c1C(=O)N(C1CC1)S(=O)(=O)c1ccc(C(C)(C)C)cc1 [Compound 410]    YES
Cc1nn(C)c(F)c1C(=O)N(C1CC1)S(=O)(=O)c1cnc(O)c(Br)c1 [Compound 447]    YES
Cc1nn(C)c(O)c1C(=O)N(C1CC1)S(=O)(=O)c1ccc(O)c(O)c1 [Compound 407]    YES
CCc1onc(C(C)C)c1C(=O)N(C1CC1)S(=O)(=O)c1ccc(O)cc1O [Compound 596]    NO

Would you kindly look at the next entry?
[ask] Bench note: check whether CC(C)c1c(C(=O)N(C2CC2)S(=O)(=O)c2ccc(O)c(C(F)(F)F)c2)sc(=O)n1C1CC1 [Compound 633] shows chromatographic logP below 4
[reply] YES

====

assay: logP by HPLC on reversed-phase column (C 18), EEC Directive 79/B31 Annex V.A8, methods A and B; assay type: physicochemical; conditions: reversed-phase HPLC column (C 18), HPLC reversed-phase C 18, method A: 43° C., 0.1% aqueous phosphoric acid, acetonitrile, linear gradient 10% to 90% acetonitrile
outcome_measure: chromatographic logP

Worked cases, chromatographic logP given:
Cc1occc1C(=O)N(C1CC1)S(=O)(=O)c1cccc(O)c1    3.27
Cc1cccc(S(=O)(=O)N(C(=O)c2c(C)nn(C)c2F)C2CC2)c1    2.61
Cn1nc(C(F)(F)F)c(C(=O)N(C2CC2)S(=O)(=O)c2ccccc2O)c1O    3.27
Cc1nn(C)c(F)c1C(=O)N(C1CC1)S(=O)(=O)c1ccccc1    2.28

[ask] Please look up its chromatographic logP: Cc1nn(C)c(F)c1C(=O)N(C1CC1)S(=O)(=O)c1ccc(O)cc1O
[reply] 2.94

====

test: logP by HPLC on reversed-phase column (C 18), EEC Directive 79/B31 Annex V.A8, methods A and B; assay type: physicochemical; details: reversed-phase HPLC column (C 18), LogP method B: HPLC reversed-phase C 18, 40° C., 0.1% aqueous formic acid / acetonitrile, linear gradient 10% to 90% acetonitrile
outcome_measure: chromatographic logP
Respond numerically, and do not add a unit to the figure.

Worked cases, chromatographic logP given:
CCOc1nn(C)cc1C(=O)N(C1CC1)S(=O)(=O)C1C=CC(OC2=CC=C(C(F)(F)F)CC2)=CC1O (stereo not shown)    4.1
COc1nn(C)cc1C(=O)N(C1CC1)S(=O)(=O)c1ccc(Oc2cc(O)cc(O)c2)cc1Br    4.3
CCOc1nn(C)cc1C(=O)N(C1CC1)S(=O)(=O)c1ccc(Oc2ccc(OC)c(OC)c2)cc1O    3.2
CCOc1nn(C)cc1C(=O)N(C1CC1)S(=O)(=O)c1ccc(Oc2ccccc2)c(O)c1    3.9
CCOc1nn(C)cc1C(=O)N(C1CC1)S(=O)(=O)c1ccc(Oc2ccc(C)cc2)c(O)c1    4.3
COc1nn(C)cc1C(=O)N(C1CC1)S(=O)(=O)c1cnn(C)c1O    1.7

[ask] Please look up its chromatographic logP: CCOc1nn(C)cc1C(=O)N(C1CC1)S(=O)(=O)C1C=CC(Oc2cccc(C(F)(F)F)c2)=C(O)C1 (stereo not shown)
[reply] 4.4

[ask] Please look up its chromatographic logP: Cn1nc(C(F)(F)F)c(C(=O)N(C2CC2)S(=O)(=O)c2c(O)sc(O)c2Br)c1F
[reply] 3.9

[ask] Please look up its chromatographic logP: CCOc1nn(C)cc1C(=O)N(C1CC1)S(=O)(=O)c1ccc(Oc2ccc(OC)c(OC)c2)c(O)c1
[reply] 3.5

[ask] Please look up its chromatographic logP: CCOc1nn(C)cc1C(=O)N(C1CC1)S(=O)(=O)c1ccc(Oc2cccc(O)c2)cc1O
[reply] 3.9

[ask] Please look up its chromatographic logP: CCOc1nn(C)cc1C(=O)N(C1CC1)S(=O)(=O)c1ccc(Oc2ccc(O)cc2)cc1O
[reply] 4

====

experiment: logP by HPLC on reversed-phase column (C 18), EEC Directive 79/B31 Annex V.A8, methods A and B; format: physicochemical; settings: reversed-phase HPLC column (C 18), HPLC reversed-phase C 18, method B: 40° C., 0.1% aqueous formic acid and acetonitrile, linear gradient 10% to 90% acetonitrile
outcome_measure: chromatographic logP
Respond numerically, and do not add a unit to the figure.

Worked cases, chromatographic logP given:
CCCOc1nn(C)cc1C(=O)N(C1CC1)S(=O)(=O)c1ccc(Oc2ccc(F)c(O)c2)cc1Br    4.5
CCc1nn(C)c(F)c1C(=O)N(C1CC1)S(=O)(=O)c1cc(C(F)(F)F)ccc1O    3.5
Cn1nc(C(F)(F)F)c(C(=O)N(C2CC2)S(=O)(=O)c2cccc(O)c2O)c1F    3.3

Let's switch to this compound now.
[ask] Please look up its chromatographic logP: CCc1nn(C)c(F)c1C(=O)N(C1CC1)S(=O)(=O)c1ccccc1Br
[reply] 2.7

====

The following molecules are shown together with reported chromatographic logP values.
test: logP by HPLC on reversed-phase column (C 18), EEC Directive 79/B31 Annex V.A8, methods A and B; assay type: physicochemical; settings: reversed-phase HPLC column (C 18), LogP method A: HPLC reversed-phase C 18, 43° C., 0.1% aqueous phosphoric acid / acetonitrile, linear gradient 10% to 90% acetonitrile
Respond numerically, and do not add a unit to the figure.

Worked cases, chromatographic logP given:
COCCn1c(C)c(C(=O)N(C2CC2)S(=O)(=O)c2ccc(C(C)(C)C)cc2)sc1=O    2.01
Cc1nn(C)c(Oc2cccc(O)c2)c1C(=O)N(C1CC1)S(=O)(=O)c1cccc(O)c1    3.94
CC(C)c1c(C(=O)N(C2CC2)S(=O)(=O)c2ccc(C(C)(C)C)cc2)sc(=O)n1C1CC1    3.01
Cc1noc(C)c1C(=O)N(C1CC1)S(=O)(=O)c1ccc(O)c(O)c1    3.72

[ask] Please look up its chromatographic logP: O=C(c1cccnc1Cl)N(C1CC1)S(=O)(=O)c1ccccc1O
[reply] 2.58

[ask] Please look up its chromatographic logP: COCCn1c(C)c(C(=O)N(C2CC2)S(=O)(=O)c2ccc(C(F)(F)F)cc2)sc1=O
[reply] 2.01

[ask] Please look up its chromatographic logP: Cc1c(C(=O)N(C2CC2)S(=O)(=O)c2ccc(O)c(O)c2)sc(=O)n1Cc1ccccc1
[reply] 3.01

[ask] Please look up its chromatographic logP: CCc1c(C(=O)N(C2CC2)S(=O)(=O)c2ccc(Cl)c(C(F)(F)F)c2)sc(=O)n1C1CC1
[reply] 3.01

[ask] Please look up its chromatographic logP: Cc1noc(C)c1C(=O)N(C1CC1)S(=O)(=O)c1ccc(C(C)(C)C)cc1
[reply] 4.03

[ask] Please look up its chromatographic logP: Cc1nn(C)c(C)c1C(=O)N(C1CC1)S(=O)(=O)c1ccc(C(C)(C)C)cc1
[reply] 3.41

[ask] Please look up its chromatographic logP: COCCn1c(C)c(C(=O)N(C2CC2)S(=O)(=O)c2ccc(O)c(C(F)(F)F)c2)sc1=O
[reply] 2.01

[ask] Please look up its chromatographic logP: Cc1c(C(=O)N(C2CC2)S(=O)(=O)c2ccc(C(F)(F)F)cc2)sc(=O)n1Cc1ccccc1
[reply] 4.08
